Test system: MCF7
assay_notes: Induction of apoptosis in human MCF7 cells assessed as late apoptotic cells at IC50 after 48 hrs by annexinV/propidium iodide staining based fluorescence analysis (reference value: 27.7 %)
Assay type: functional
assay_metric: Activity (%)

{"molecular_string": "CCCCCc1ccc(C#Cc2cn(CCC(COC(C)=O)COC(C)=O)c(=O)n(C(=O)c3ccccc3)c2=O)cc1", "result_number": 24.1}
{"molecular_string": "CC(=O)OCC(CCn1cc(C#CC2CC2)c(=O)n(C(=O)c2ccccc2)c1=O)COC(C)=O", "result_number": 24.4}
{"molecular_string": "O=c1[nH]c(=O)n(CCC(CO)CO)cc1-c1ccco1", "result_number": 18}
{"molecular_string": "O=c1[nH]c(=O)n(CCC(CO)CO)cc1-c1cccs1", "result_number": 22.9}

---

Test system: MCF7
assay_notes: Downregulation of ASAH1 expression in human MCF7 cells at IC50 after 24 hrs by western blot analysis
Assay type: functional, cell-based
Activity calls are given as the source filed them. The rule behind the calls is not given here.

{"molecular_string": "O=c1[nH]c(=O)n(CCC(CO)CO)cc1-c1ccco1", "measured_on": "MCF7", "inhibition": "inactive"}
{"molecular_string": "CC(=O)OCC(CCn1cc(C#CC2CC2)c(=O)n(C(=O)c2ccccc2)c1=O)COC(C)=O", "measured_on": "MCF7", "inhibition": "Active"}
{"molecular_string": "CCCCCc1ccc(C#Cc2cn(CCC(COC(C)=O)COC(C)=O)c(=O)n(C(=O)c3ccccc3)c2=O)cc1", "measured_on": "MCF7", "inhibition": "Active"}
{"molecular_string": "O=c1[nH]c(=O)n(CCC(CO)CO)cc1-c1cccs1", "measured_on": "MCF7", "inhibition": "inactive"}
